Measured MIC Enterococcus faecium (GC 4557) of individual entries
test system: Enterococcus sp.; assay: in vitro antibacterial evaluation, MIC by broth dilution; assay type: cell-based; conditions: broth dilution, 18 hours at 35° C.
Quick note: give the figure in µg/mL, leave out the unit.

INSERT INTO measurements (compound, result_units, value) VALUES
  ('COc1ccc(COCC2OC(OC3C(CO)OC(Oc4ccc(CC5NC(=O)C(C(C)c6ccccc6)NC(=O)CNC(=O)C(CO)NC(=O)C(C(O)C6CNC(=N)N6C6OC(CO)C(O)C(O)C6O)NC(=O)C(C(O)C6CNC(=N)N6)NC5=O)cc4)C(O)C3O)C(O)C(O)C2O)cc1F (stereo not drawn)', 'µg/mL', 4);

Looking up CC(c1ccccc1)C1NC(=O)CNC(=O)C(CO)NC(=O)C(CC2CNC(=N)N2C2OC(CO)C(O)C(O)C2O)NC(=O)C(CC2CNC(=N)N2)NC(=O)C(Cc2ccc(OC3OC(CO)C(OC4OC5COC6(OC5C(O)C4O)C4CC5CC(C4)CC6C5)C(O)C3O)cc2)NC1=O (stereo not drawn) , I see its MIC Enterococcus faecium (GC 4557) listed as 4

Looking up CC(c1ccccc1)C1NC(=O)CNC(=O)C(CO)NC(=O)C(C(O)C2CNC(=N)N2C2OC(CO)C(O)C(O)C2O)NC(=O)C(C(O)C2CNC(=N)N2)NC(=O)C(Cc2ccc(OC3OC(CO)C(OC4OC(COCc5cccs5)C(O)C(O)C4O)C(O)C3O)cc2)NC1=O (stereo not drawn) , I see its MIC Enterococcus faecium (GC 4557) listed as 4

----------
system: Streptococcus sp.; experiment: in vitro antibacterial evaluation, MIC by broth dilution; type: cell-based; settings: broth dilution, 18 hours at 35° C.
reported-metric: MIC Streptococcus pneumoniae (GC 1894)

INSERT INTO assay_data (compound, reported_metric, value) VALUES
  ('CC(c1ccccc1)C1NC(=O)CNC(=O)C(CO)NC(=O)C(C(O)C2CNC(=N)N2C2OC(CO)C(O)C3OC(C)(C)OC32)NC(=O)C(C(O)C2CNC(=N)N2)NC(=O)C(Cc2ccc(OC3OC(CO)C(OC4OC(CO)C(O)C(O)C4O)C4OC(C)(C)OC34)cc2)NC1=O (stereo not drawn)', 'MIC Streptococcus pneumoniae (GC 1894)', '>128 µg/mL');

Looking up COc1ccc2cc(COCC3OC(OC4C(CO)OC(Oc5ccc(CC6NC(=O)C(C(C)c7ccccc7)NC(=O)CNC(=O)C(CO)NC(=O)C(C(O)C7CNC(=N)N7C7OC(CO)C(O)C(O)C7O)NC(=O)C(C(O)C7CNC(=N)N7)NC6=O)cc5)C(O)C4O)C(O)C(O)C3O)ccc2c1 (stereo not drawn) , I see its MIC Streptococcus pneumoniae (GC 1894) listed as <0.06 µg/mL

Looking up COc1ccc(COCC2OC(OC3C(CO)OC(Oc4ccc(CC5NC(=O)C(C(C)c6ccccc6)NC(=O)CNC(=O)C(CO)NC(=O)C(C(O)C6CNC(=N)N6C6OC(CO)C(O)C(O)C6O)NC(=O)C(C(O)C6CNC(=N)N6)NC5=O)cc4)C(O)C3O)C(O)C(O)C2O)cc1OCc1ccccc1 (stereo not drawn) , I see its MIC Streptococcus pneumoniae (GC 1894) listed as <0.06 µg/mL

Looking up CCCCN1CC(C(O)C2NC(=O)C(C(O)C3CNC(=N)N3)NC(=O)C(Cc3ccc(OC4OC(CO)C(OC5OC6COC7(OC6C(O)C5O)C5CC6CC(C5)CC7C6)C(O)C4O)cc3)NC(=O)C(C(C)c3ccccc3)NC(=O)CNC(=O)C(CO)NC2=O)N(C2OC(CO)C(O)C(O)C2O)C1=N (stereo not drawn) , I see its MIC Streptococcus pneumoniae (GC 1894) listed as <0.12 µg/mL

Looking up CC(c1ccccc1)C1NC(=O)CNC(=O)C(CO)NC(=O)C(C(O)C2CNC(=N)N2C2OC(CO)C(O)C(O)C2O)NC(=O)C(C(O)C2CNC(=N)N2)NC(=O)C(Cc2ccc(OC3OC(CO)C(OC4OC(CO)C(O)C5OC6(CCCCCCCCCCCC6)OC45)C(O)C3O)cc2)NC1=O (stereo not drawn) [Example 210a] , I see its MIC Streptococcus pneumoniae (GC 1894) listed as <0.06 µg/mL

Looking up CC(c1ccccc1)C1NC(=O)CNC(=O)C(CO)NC(=O)C(C(O)C2CNC(=N)N2C2OC(CO)C(O)C(O)C2O)NC(=O)C(C(O)C2CNC(=N)N2)NC(=O)C(Cc2ccc(OC3OC(CO)C(OC4OC5COC(c6ccc(C(=O)c7ccc(I)cc7)cc6)OC5C(O)C4O)C(O)C3O)cc2)NC1=O (stereo not drawn) , I see its MIC Streptococcus pneumoniae (GC 1894) listed as <0.06 µg/mL

----------
Measured MIC Enterococcus faecalis (GC 4554) of individual entries
system: Enterococcus sp.; assay: in vitro antibacterial evaluation, MIC by broth dilution; type: cell-based; conditions: broth dilution, inoculum 5×10^5 CFU/mL, 18 hours at 35° C.; strain GC 4554

// below: answered compounds
INSERT INTO measurements (compound, target, reported_metric, value) VALUES
  ('CC(c1ccccc1)C1NC(=O)CNC(=O)C(CO)NC(=O)C(C(O)C2CNC(=N)N2C2OC(CO)C(O)C3OC(C)(C)OC32)NC(=O)C(C(O)C2CNC(=N)N2)NC(=O)C(Cc2ccc(OC3OC(CO)C(OC4OC(CO)C(O)C(O)C4O)C4OC(C)(C)OC34)cc2)NC1=O (stereo not drawn) [Example 229]', 'Enterococcus sp.', 'MIC Enterococcus faecalis (GC 4554)', '>128 µg/mL'),
  ('CC(c1ccccc1)C1NC(=O)CNC(=O)C(CO)NC(=O)C(C(O)C2CNC(=N)N2C2OC(CO)C(O)C(O)C2O)NC(=O)C(C(O)C2CNC(=NC(=O)C(C)(C)C)N2)NC(=O)C(Cc2ccc(OC3OC(CO)C(OC4OC(CO)C(O)C(O)C4O)C(O)C3O)cc2)NC1=O (stereo not drawn) [Example 155]', 'Enterococcus sp.', 'MIC Enterococcus faecalis (GC 4554)', '0.5 to 1 µg/mL');

# context switch: different compound, same MIC Enterococcus faecalis (GC 4554)
Looking up CC(c1ccccc1)C1NC(=O)CNC(=O)C(CO)NC(=O)C(C(O)C2CNC(=N)N2C2OC(CO)C(O)C3OC(C)(C)OC32)NC(=O)C(C(O)C2CNC(=N)N2)NC(=O)C(Cc2ccc(OC3OC(CO)C(OC4OC5COC(C)(C)OC5C5OC(C)(C)OC45)C4OC(C)(C)OC34)cc2)NC1=O (stereo not drawn) [Example 229b] , I see its MIC Enterococcus faecalis (GC 4554) listed as >128 µg/mL

----------
Measured MIC Escherichia coli (GC 4560) of individual entries
Test system: Escherichia coli
Test: in vitro antibacterial evaluation, MIC by broth dilution
Type: cell-based
Conditions: strain GC 4560, 18 hours at 35° C.
From the text: Methods for in vitro Antibacterial Evaluation (Table 1) […]
Quick note: give the figure in µg/mL, leave out the unit.

Looking up CC(c1ccccc1)C1NC(=O)CNC(=O)C(CO)NC(=O)C(C(O)C2CNC(=N)N2C2OC(CO)C(O)C(O)C2O)NC(=O)C(C(O)C2CNC(=N)N2)NC(=O)C(Cc2ccc(OC3OC(CO)C(OC4OC(CO)C(O)C5OC(c6ccc(-c7ccsc7)cc6)OC45)C(O)C3O)cc2)NC1=O (stereo not shown) [Example 164a] , I see its MIC Escherichia coli (GC 4560) listed as 8

Looking up CCOc1cc(C2OCC3OC(OC4C(CO)OC(Oc5ccc(CC6NC(=O)C(C(C)c7ccccc7)NC(=O)CNC(=O)C(CO)NC(=O)C(C(O)C7CNC(=N)N7C7OC(CO)C(O)C(O)C7O)NC(=O)C(C(O)C7CNC(=N)N7)NC6=O)cc5)C(O)C4O)C(O)C(O)C3O2)ccc1[N+](=O)[O-] (stereo not shown) [Example 167] , I see its MIC Escherichia coli (GC 4560) listed as 8

Looking up CC(c1ccccc1)C1NC(=O)CNC(=O)C(CO)NC(=O)C(C(O)C2CNC(=N)N2C2OC(CO)C(O)C(O)C2O)NC(=O)C(C(O)C2CNC(=N)N2)NC(=O)C(Cc2ccc(OC3OC(CO)C(OC4OC5COC(c6ccc(Oc7ccc(C(C)(C)C)cc7)cc6)OC5C(O)C4O)C(O)C3O)cc2)NC1=O (stereo not shown) [Example 181] , I see its MIC Escherichia coli (GC 4560) listed as 16

----------
Measured MIC Streptococcus pneumoniae (ATCC 6301) of individual entries
test system: Streptococcus sp.; assay: in vitro antibacterial evaluation, MIC by broth dilution; assay type: cell-based; conditions: broth dilution, inoculum 5×10^5 CFU/mL, 18 hours at 35° C.; strain ATCC 6301
Quick note: give the figure in µg/mL, leave out the unit.

// below: answered compounds
INSERT INTO measurements (compound, value) VALUES
  ('CC(c1ccccc1)C1NC(=O)CNC(=O)C(CO)NC(=O)C(C(O)C2CNC(=N)N2C2OC(CO)C(O)C(O)C2O)NC(=O)C(C(O)C2CNC(=N)N2)NC(=O)C(Cc2ccc(OC3OC(CO)C(OC4OC5COC(c6cccc(OCc7ccc([N+](=O)[O-])cc7)c6)OC5C(O)C4O)C(O)C3O)cc2)NC1=O (centres unmarked) [Example 182]', 4),
  ('CC(c1ccccc1)C1NC(=O)CNC(=O)C(CO)NC(=O)C(C(O)C2CNC(=N)N2C2OC(CO)C(O)C(O)C2O)NC(=O)C(C(O)C2CNC(=N)N2)NC(=O)C(Cc2ccc(OC3OC(CO)C(OC4OC(COCC=Cc5ccccc5)C(O)C(O)C4O)C(O)C3O)cc2)NC1=O (centres unmarked) [Example 242]', 1),
  ('COc1ccc(COC2C(CO)OC(OC3C(CO)OC(Oc4ccc(CC5NC(=O)C(C(C)c6ccccc6)NC(=O)CNC(=O)C(CO)NC(=O)C(C(O)C6CNC(=N)N6C6OC(CO)C(O)C(O)C6O)NC(=O)C(C(O)C6CNC(=N)N6)NC5=O)cc4)C(O)C3O)C(O)C2O)cc1OCc1ccccc1 (centres unmarked) [Example 239a]', 0.25),
  ('CC(c1ccccc1)C1NC(=O)CNC(=O)C(CO)NC(=O)C(C(O)C2CN(Cc3ccc(C(F)(F)F)cc3)C(=N)N2C2OC(CO)C(O)C(O)C2O)NC(=O)C(C(O)C2CNC(=N)N2)NC(=O)C(Cc2ccc(OC3OC(CO)C(OC4OC5COC6(OC5C(O)C4O)C4CC5CC(C4)CC6C5)C(O)C3O)cc2)NC1=O (centres unmarked) [Example 226]', 4);

Assay Streptococcus sp., sample CC(c1ccccc1)C1NC(=O)CNC(=O)C(CO)NC(=O)C(C(O)C2CNC(=N)N2C2OC(CO)C(O)C(O)C2O)NC(=O)C(C(O)C2CNC(=N)N2)NC(=O)C(Cc2ccc(OC3OC(CO)C(OC4OC(CO)C(O)C5OC(c6ccc(-c7ccsc7)cc6)OC45)C(O)C3O)cc2)NC1=O (centres unmarked) [Example 164a] , MIC Streptococcus pneumoniae (ATCC 6301) read: 1
